Tested on: Staphylococcus aureus
ASSAY INFO: Antibacterial activity against […] Staphylococcus aureus ATCC 29213 by the broth microdilution method
Type: functional
REPORTED METRIC: log10(MIC) (log10 of the value in µg/mL)

COMPOUND STRUCTURE	log10(MIC)
CC[C@H]1OC(=O)[C@H](C)[C@@H](O[C@H]2C[C@@](C)(OC)[C@@H](OC(=O)NNC(=O)c3ccc(F)cc3)[C@H](C)O2)[C@H](C)[C@@H](O[C@@H]2O[C@H](C)C[C@H](N(C)C)[C@H]2O)[C@](C)(O)C[C@@H](C)CN(C)[C@H](C)[C@H]2OC(=O)O[C@@]21C	1.51
CC[C@H]1OC(=O)[C@H](C)[C@@H](O[C@H]2C[C@@](C)(OC)[C@@H](OC(=O)NCCNC(=O)c3cc([N+](=O)[O-])cc([N+](=O)[O-])c3)[C@H](C)O2)[C@H](C)[C@@H](O[C@@H]2O[C@H](C)C[C@H](N(C)C)[C@H]2O)[C@](C)(O)C[C@@H](C)CN(C)[C@H](C)[C@H]2OC(=O)O[C@@]21C	0.90
CC[C@H]1OC(=O)[C@H](C)[C@@H](O[C@H]2C[C@@](C)(OC)[C@@H](OC(=O)NNC(=O)c3ccc(Br)cc3)[C@H](C)O2)[C@H](C)[C@@H](O[C@@H]2O[C@H](C)C[C@H](N(C)C)[C@H]2O)[C@](C)(O)C[C@@H](C)CN(C)[C@H](C)[C@H]2OC(=O)O[C@@]21C	0.00
CC[C@H]1OC(=O)[C@H](C)[C@@H](O[C@H]2C[C@@](C)(OC)[C@@H](OC(=O)NNC(=O)c3ccc(Cl)cc3)[C@H](C)O2)[C@H](C)[C@@H](O[C@@H]2O[C@H](C)C[C@H](N(C)C)[C@H]2O)[C@](C)(O)C[C@@H](C)CN(C)[C@H](C)[C@H]2OC(=O)O[C@@]21C	0.60
CC[C@H]1OC(=O)[C@H](C)[C@@H](O[C@H]2C[C@@](C)(OC)[C@@H](OC(=O)NCCCCNC(=O)c3ccc(C)cc3)[C@H](C)O2)[C@H](C)[C@@H](O[C@@H]2O[C@H](C)C[C@H](N(C)C)[C@H]2O)[C@](C)(O)C[C@@H](C)CN(C)[C@H](C)[C@H]2OC(=O)O[C@@]21C	1.51
CC[C@H]1OC(=O)[C@H](C)[C@@H](O[C@H]2C[C@@](C)(OC)[C@@H](OC(=O)NNC(=O)c3ccc(C)cc3)[C@H](C)O2)[C@H](C)[C@@H](O[C@@H]2O[C@H](C)C[C@H](N(C)C)[C@H]2O)[C@](C)(O)C[C@@H](C)CN(C)[C@H](C)[C@H]2OC(=O)O[C@@]21C	0.60
CC[C@H]1OC(=O)[C@H](C)[C@@H](O[C@H]2C[C@@](C)(OC)[C@@H](OC(=O)NCCNC(=O)c3ccc(C)cc3)[C@H](C)O2)[C@H](C)[C@@H](O[C@@H]2O[C@H](C)C[C@H](N(C)C)[C@H]2O)[C@](C)(O)C[C@@H](C)CN(C)[C@H](C)[C@H]2OC(=O)O[C@@]21C	1.20

###

Tested on: Staphylococcus aureus
ASSAY INFO: Antibacterial activity against penicillin-resistant Staphylococcus aureus by the broth microdilution method
Format: functional
Quick reference for MIC among some compounds

COMPOUND STRUCTURE	MIC / µg/mL
CC[C@H]1OC(=O)[C@H](C)[C@@H](O[C@H]2C[C@@](C)(OC)[C@@H](OC(=O)NCCNC(=O)c3ccc(F)cc3)[C@H](C)O2)[C@H](C)[C@@H](O[C@@H]2O[C@H](C)C[C@H](N(C)C)[C@H]2O)[C@](C)(O)C[C@@H](C)CN(C)[C@H](C)[C@H]2OC(=O)O[C@@]21C	2
CC[C@H]1OC(=O)[C@H](C)[C@@H](O[C@H]2C[C@@](C)(OC)[C@@H](OC(=O)NNC(=O)c3ccc(F)cc3)[C@H](C)O2)[C@H](C)[C@@H](O[C@@H]2O[C@H](C)C[C@H](N(C)C)[C@H]2O)[C@](C)(O)C[C@@H](C)CN(C)[C@H](C)[C@H]2OC(=O)O[C@@]21C	4
CC[C@H]1OC(=O)[C@H](C)[C@@H](O[C@H]2C[C@@](C)(OC)[C@@H](OC(=O)NCCNC(=O)c3ccc([N+](=O)[O-])cc3)[C@H](C)O2)[C@H](C)[C@@H](O[C@@H]2O[C@H](C)C[C@H](N(C)C)[C@H]2O)[C@](C)(O)C[C@@H](C)CN(C)[C@H](C)[C@H]2OC(=O)O[C@@]21C	1
CC[C@H]1OC(=O)[C@H](C)[C@@H](O[C@H]2C[C@@](C)(OC)[C@@H](OC(=O)NNC(=O)c3ccc(Cl)cc3Cl)[C@H](C)O2)[C@H](C)[C@@H](O[C@@H]2O[C@H](C)C[C@H](N(C)C)[C@H]2O)[C@](C)(O)C[C@@H](C)CN(C)[C@H](C)[C@H]2OC(=O)O[C@@]21C	16
CC[C@H]1OC(=O)[C@H](C)[C@@H](O[C@H]2C[C@@](C)(OC)[C@@H](OC(=O)NCCCCNC(=O)c3ccc(Cl)cc3Cl)[C@H](C)O2)[C@H](C)[C@@H](O[C@@H]2O[C@H](C)C[C@H](N(C)C)[C@H]2O)[C@](C)(O)C[C@@H](C)CN(C)[C@H](C)[C@H]2OC(=O)O[C@@]21C	64
CC[C@H]1OC(=O)[C@H](C)[C@@H](O[C@H]2C[C@@](C)(OC)[C@@H](OC(=O)NNC(=O)c3ccc(C)cc3)[C@H](C)O2)[C@H](C)[C@@H](O[C@@H]2O[C@H](C)C[C@H](N(C)C)[C@H]2O)[C@](C)(O)C[C@@H](C)CN(C)[C@H](C)[C@H]2OC(=O)O[C@@]21C	4
CC[C@H]1OC(=O)[C@H](C)[C@@H](O[C@H]2C[C@@](C)(OC)[C@@H](OC(=O)NCCNC(=O)c3ccc(OC)c(OC)c3)[C@H](C)O2)[C@H](C)[C@@H](O[C@@H]2O[C@H](C)C[C@H](N(C)C)[C@H]2O)[C@](C)(O)C[C@@H](C)CN(C)[C@H](C)[C@H]2OC(=O)O[C@@]21C	8
CC[C@H]1OC(=O)[C@H](C)[C@@H](O[C@H]2C[C@@](C)(OC)[C@@H](OC(=O)NCCCCNC(=O)c3ccc(C)cc3)[C@H](C)O2)[C@H](C)[C@@H](O[C@@H]2O[C@H](C)C[C@H](N(C)C)[C@H]2O)[C@](C)(O)C[C@@H](C)CN(C)[C@H](C)[C@H]2OC(=O)O[C@@]21C	64
CC[C@H]1OC(=O)[C@H](C)[C@@H](O[C@H]2C[C@@](C)(OC)[C@@H](OC(=O)NCCCCNC(=O)c3cc([N+](=O)[O-])cc([N+](=O)[O-])c3)[C@H](C)O2)[C@H](C)[C@@H](O[C@@H]2O[C@H](C)C[C@H](N(C)C)[C@H]2O)[C@](C)(O)C[C@@H](C)CN(C)[C@H](C)[C@H]2OC(=O)O[C@@]21C	16
CC[C@H]1OC(=O)[C@H](C)[C@@H](O[C@H]2C[C@@](C)(OC)[C@@H](OC(=O)NNC(=O)c3ccc(Cl)cc3)[C@H](C)O2)[C@H](C)[C@@H](O[C@@H]2O[C@H](C)C[C@H](N(C)C)[C@H]2O)[C@](C)(O)C[C@@H](C)CN(C)[C@H](C)[C@H]2OC(=O)O[C@@]21C	16
CC[C@H]1OC(=O)[C@H](C)[C@@H](O[C@H]2C[C@@](C)(OC)[C@@H](OC(=O)NCCCCNC(=O)c3ccc(F)cc3)[C@H](C)O2)[C@H](C)[C@@H](O[C@@H]2O[C@H](C)C[C@H](N(C)C)[C@H]2O)[C@](C)(O)C[C@@H](C)CN(C)[C@H](C)[C@H]2OC(=O)O[C@@]21C	32
CC[C@H]1OC(=O)[C@H](C)[C@@H](O[C@H]2C[C@@](C)(OC)[C@@H](OC(=O)NCCNC(=O)c3cc([N+](=O)[O-])cc([N+](=O)[O-])c3)[C@H](C)O2)[C@H](C)[C@@H](O[C@@H]2O[C@H](C)C[C@H](N(C)C)[C@H]2O)[C@](C)(O)C[C@@H](C)CN(C)[C@H](C)[C@H]2OC(=O)O[C@@]21C	1
CC[C@H]1OC(=O)[C@H](C)[C@@H](O[C@H]2C[C@@](C)(OC)[C@@H](OC(=O)NCCNC(=O)c3ccc(Cl)cc3)[C@H](C)O2)[C@H](C)[C@@H](O[C@@H]2O[C@H](C)C[C@H](N(C)C)[C@H]2O)[C@](C)(O)C[C@@H](C)CN(C)[C@H](C)[C@H]2OC(=O)O[C@@]21C	2
